Data credit: patent US20240148722A1

Biological target: TDP-43 1-260 (Homo sapiens)
Sequence (Q13148 1-260): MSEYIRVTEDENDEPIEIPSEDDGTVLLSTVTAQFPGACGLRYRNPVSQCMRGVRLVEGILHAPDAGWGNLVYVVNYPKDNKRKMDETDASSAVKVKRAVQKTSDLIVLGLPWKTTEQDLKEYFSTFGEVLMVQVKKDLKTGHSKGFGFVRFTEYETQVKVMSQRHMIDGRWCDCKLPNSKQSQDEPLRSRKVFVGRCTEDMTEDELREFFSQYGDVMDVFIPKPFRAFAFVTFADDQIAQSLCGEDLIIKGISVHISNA
Assay: TDP-43 alpha-screen assay with bt-TAR32
Format: binding
Conditions: bt-TAR32 0.125 nM; 3 h at room temperature; read-out: Activity (μM) in the TDP-43-DNA alpha-screen assay
QUANTITY: IC50
Put down the number, then write its unit next to it.

// worked examples, IC50 included
>  <MOLECULE>
COc1ccc(-c2cc(NCCN3CCNCC3)cc(-c3ccc(N4CCNCC4)cc3)n2)cc1 [Example 74]

>  <READING>
0.49 µM

$$$$
>  <MOLECULE>
COc1ccc(-c2cc(NCC3CCN(CC4CNC4)CC3)cc(-c3ccc(N4CCN(C)CC4)cc3)n2)cc1 [Example 29]

>  <READING>
0.11 µM

$$$$

Query string: # lookup: IC50 of CNS(=O)(=O)c1ccc(-c2cc(NCCCN(C)CCCN)cc(-c3ccc(OC)cc3)n2)cc1 [Example 53]
Result string: 4.17 µM

Query string: What IC50 value was documented for this molecule, COc1ccc(-c2cc(NCCCNC3CC(N)C3)cc(-c3ccc(N4CCNCC4)cc3)n2)cc1 (centres unmarked) [Example 6] ?
Result string: 0.04 µM

###

Molecular target: TDP-43 1-260 (Homo sapiens)
Assay: TDP-43 alpha-screen assay with bt-TAR32
Format: binding
Conditions: bt-TAR32 0.125 nM; 3 h at room temperature; read-out: Activity (μM) in the TDP-43-DNA alpha-screen assay
QUANTITY: IC50 (µM)
Respond numerically; units are µM and should not be typed.

Sample answers from the record:
>  <COMPOUND>
COc1ccc(-c2cc(N[C@H]3CC[C@H](N)CC3)cc(-c3cccc(OCCN4CCCC4)c3)n2)cc1 [Example 90]

>  <UNIT TAG>
µM

>  <IC50>
0.09

$$$$
>  <COMPOUND>
COc1ccc(-c2cc(NC3CCNCC3)cc(-c3ccc(N4CCNCC4)cc3)n2)cc1 [Example 39]

>  <UNIT TAG>
µM

>  <IC50>
0.19

$$$$
>  <COMPOUND>
COc1ccc(-c2cc(N(C)CCCN(C)C)cc(-c3ccc(N4CCN(C)CC4)cc3)n2)cc1 [Example 42]

>  <UNIT TAG>
µM

>  <IC50>
0.46

$$$$
>  <COMPOUND>
COc1cccc(-c2cc(NCCCN(C)CCCN)cc(-c3ccc(N4CCNCC4)cc3)n2)c1 [Example 51]

>  <UNIT TAG>
µM

>  <IC50>
0.64

$$$$
>  <COMPOUND>
COc1ccc(-c2cc(NCCCN3CCNCC3)cc(-c3ccc(N4CCN(C)CC4)cc3)n2)cc1 [Example 72]

>  <UNIT TAG>
µM

>  <IC50>
0.55

$$$$
>  <COMPOUND>
COc1ccc(-c2cc(NCCCN(C)C)cc(-c3ccc(C[C@@H](N)C(=O)O)cc3)n2)cc1 [Example 62]

>  <UNIT TAG>
µM

>  <IC50>
1.85

$$$$
>  <COMPOUND>
COc1ccc(-c2cc(NCC3CCN(CC4CCNC4)CC3)cc(-c3ccc(N4CCN(C)CC4)cc3)n2)cc1 (stereo not shown) [Example 25]

>  <UNIT TAG>
µM

>  <IC50>
0.09

$$$$
>  <COMPOUND>
CN(C)CCCNc1cc(-c2ccc(OCCCN3CCCC3)cc2)nc2ccccc12 [Example 82]

>  <UNIT TAG>
µM

>  <IC50>
0.11

$$$$

Now consider the entry below.
Query string: I'd like to know its IC50. The compound in question is COc1ccc(-c2cc(NCCCN(C)CCCN)cc(-c3ccc(N4CCN(C)CC4)cc3)n2)cc1 [Example 32]
Result string: 0.13
